Reported inhibition at 0.01 µM values are given for each entry in this list.
ASSAYED_SYSTEM: CYP17 (human testicular microsome) (Homo sapiens, UniProt P05093)
Construct: using microsomal fraction from human testis (Celsis Cat #S00110) as the enzyme source; tissue Celsis S00110; host or cells: human testis microsomal fraction
Sequence (P05093 1-508): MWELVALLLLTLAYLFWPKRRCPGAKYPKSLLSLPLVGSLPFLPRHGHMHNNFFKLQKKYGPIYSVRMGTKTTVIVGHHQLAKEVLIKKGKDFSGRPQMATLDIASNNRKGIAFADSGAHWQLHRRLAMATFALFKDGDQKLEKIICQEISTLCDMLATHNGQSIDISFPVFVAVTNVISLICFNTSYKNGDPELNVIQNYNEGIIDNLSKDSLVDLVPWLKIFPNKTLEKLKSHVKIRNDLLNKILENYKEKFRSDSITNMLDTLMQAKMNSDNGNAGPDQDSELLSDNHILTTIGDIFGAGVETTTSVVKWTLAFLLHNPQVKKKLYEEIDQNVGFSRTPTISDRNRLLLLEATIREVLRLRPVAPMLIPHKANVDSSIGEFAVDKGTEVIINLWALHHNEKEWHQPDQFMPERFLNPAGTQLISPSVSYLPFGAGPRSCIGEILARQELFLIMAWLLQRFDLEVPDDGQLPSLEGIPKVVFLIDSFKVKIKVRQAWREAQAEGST
METHOD: CYP17 enzymatic assay (% inhibition at 10 nM), version 1 (Biological Example 5)
Type: biochemical
PROTOCOL_CONDITIONS: compound at 10 nM, read-out: CYP17 enzymatic assay % inhibition at 10 nM (Biological Example No. 5)

Ask | // returns reported inhibition at 0.01 µM for input CN1CC[C@@]2(C)C(=CC1=O)CC[C@H]1C3=CC=C(c4cnccn4)[C@@]3(C)CC[C@@H]12
Reply | > 80%

Ask | // returns reported inhibition at 0.01 µM for input COC1CC[C@@]2(C)[C@@H](CC[C@@H]3[C@@H]2CC[C@]2(C)C(n4ccnn4)=CC[C@@H]32)C1 (stereo partly shown)
Reply | 1 to 50%

Ask | // returns reported inhibition at 0.01 µM for input C[C@]12CC[C@H]3[C@@H](CC[C@H]4CNC(=O)CC[C@@]43C)C1=CC=C2n1ccnc1
Reply | 50 to 80%

Ask | // returns reported inhibition at 0.01 µM for input Cc1cncc(C2=CCC3C4CC=C5N(C)C(=O)CCC[C@]5(C)C4CC[C@]23C)c1 (stereo partly shown)
Reply | 50 to 80%

Ask | // returns reported inhibition at 0.01 µM for input COc1cncc(C2=CCC3C4CC=C5N(C)C(=O)CCC[C@]5(C)C4CC[C@]23C)c1 (stereo partly shown)
Reply | > 80%

Ask | // returns reported inhibition at 0.01 µM for input COC1CC[C@@]2(C)[C@@H](CC[C@@H]3[C@@H]2CC[C@]2(C)C(c4cccnc4)=CC[C@@H]32)C1 (stereo partly shown)
Reply | 1 to 50%

Ask | // returns reported inhibition at 0.01 µM for input COC1C[C@H]2[C@@H]3CC=C(n4ccnc4)[C@@]3(C)CC[C@@H]2[C@@]2(C)CCC3CC312 (stereo partly shown)
Reply | > 80%

====

ASSAYED_SYSTEM: CYP17 (human testicular microsome) (Homo sapiens, UniProt P05093)
Construct: using microsomal fraction from human testis (Celsis Cat #S00110) as the enzyme source; tissue Celsis S00110; host or cells: human testis microsomal fraction
METHOD: CYP17 enzymatic assay (% inhibition at 1 nM) (Biological Example 12)
Type: biochemical
PROTOCOL_CONDITIONS: compound at 1 nM, read-out: CYP17 enzymatic assay % inhibition at 1 nM (Biological Example No. 12)
Reported inhibition at 0.001 µM values are given for each entry in this list.

Please review the entries below; each comes with its answer.
MOLECULE: C[C@]12CCC(NC(=O)C3CC3)CC1=CCC1C2CC[C@]2(C)C(n3ccnc3)=CCC12 (stereo partly shown)
inhibition at 0.001 µM: > 50%

MOLECULE: CCNC(=S)N[C@@H]1CC[C@@]2(C)C(=CC[C@@H]3[C@@H]2CC[C@]2(C)C(c4cccnc4)=CC[C@@H]32)C1
inhibition at 0.001 µM: 10 to 50%

MOLECULE: C[C@]12CC[C@@](O)(C3CC3)CC1CC[C@@H]1[C@@H]2CC[C@]2(C)C(c3cccnc3)=CC[C@@H]12 (stereo partly shown)
inhibition at 0.001 µM: 10 to 50%

MOLECULE: C[C@]12CCC(=O)C(O)=C1C=C[C@@H]1[C@@H]2CC[C@]2(C)C(c3cccnc3)=CC[C@@H]12
inhibition at 0.001 µM: > 50%

MOLECULE: C[C@]12CC[C@H]3[C@@H](CCC45CC4C(O)CC[C@]35C)[C@@H]1CC=C2c1cccnc1 (stereo partly shown)
inhibition at 0.001 µM: > 50%

MOLECULE: CN(C)CC(=O)O[C@H]1CC[C@@]2(C)C(=CC[C@H]3C4=CC=C(c5cccnc5)[C@@]4(C)CC[C@@H]32)C1
inhibition at 0.001 µM: > 50%

Ask | // returns reported inhibition at 0.001 µM for input CCCC(=O)N1CCC2CC[C@@H]3[C@H](CC[C@]4(C)C(n5ccnc5)=CC[C@@H]34)[C@@]2(C)CC1 (stereo partly shown)
Reply | > 50%

====

ASSAYED_SYSTEM: CYP17 (human testicular microsome) (Homo sapiens, UniProt P05093)
Construct: using microsomal fraction from human testis (Celsis Cat #S00110) as the enzyme source; tissue Celsis S00110; host or cells: human testis microsomal fraction
Sequence (P05093 1-508): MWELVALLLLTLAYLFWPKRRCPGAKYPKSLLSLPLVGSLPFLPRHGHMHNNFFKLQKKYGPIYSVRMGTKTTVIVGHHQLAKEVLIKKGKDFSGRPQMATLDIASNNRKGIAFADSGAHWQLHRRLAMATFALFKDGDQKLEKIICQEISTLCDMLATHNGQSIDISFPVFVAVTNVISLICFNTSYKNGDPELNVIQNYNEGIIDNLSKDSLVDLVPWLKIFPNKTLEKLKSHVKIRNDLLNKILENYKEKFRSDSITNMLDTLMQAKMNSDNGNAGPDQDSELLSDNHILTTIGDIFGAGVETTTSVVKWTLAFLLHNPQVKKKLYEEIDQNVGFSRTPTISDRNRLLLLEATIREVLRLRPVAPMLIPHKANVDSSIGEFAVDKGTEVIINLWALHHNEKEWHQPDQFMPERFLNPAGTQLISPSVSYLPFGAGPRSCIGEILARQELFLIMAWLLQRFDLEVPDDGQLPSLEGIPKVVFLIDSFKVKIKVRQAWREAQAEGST
METHOD: CYP17 enzymatic assay (% inhibition at 10 nM), version 1 (Biological Example 5)
Type: biochemical
PROTOCOL_CONDITIONS: 10 nM compound, DHEA by ELISA, read-out: Biological Example No. 5: CYP17 percent inhibition at 10 nM (version 1)
Reported inhibition at 0.01 µM values are given for each entry in this list.

MOLECULE: COc1cncc(C2=CC[C@H]3[C@@H]4CC[C@H]5COCCC[C@]5(C)[C@H]4CC[C@]23C)c1 [Compound 123]
ASSAYED_SYSTEM: CYP17 (human testicular microsome) (Homo sapiens, UniProt P05093)
OBS_VALUE: 50 to 80%
--
MOLECULE: COc1cncc(C2=CC[C@H]3[C@@H]4CCC5=CC(=O)NCC[C@]5(C)[C@H]4CC[C@]23C)c1 [Compound 53]
ASSAYED_SYSTEM: CYP17 (human testicular microsome) (Homo sapiens, UniProt P05093)
OBS_VALUE: 50 to 80%
--
MOLECULE: COc1cncc(C2=CC[C@H]3[C@@H]4CCC5=CCN(C)CC[C@]5(C)[C@H]4CC[C@]23C)c1 [Compound 148]
ASSAYED_SYSTEM: CYP17 (human testicular microsome) (Homo sapiens, UniProt P05093)
OBS_VALUE: 1 to 50%
--
MOLECULE: COc1cncc(C2=CC[C@H]3[C@@H]4CC[C@H]5CCCCC[C@]5(C)[C@H]4CC[C@]23C)c1 [Compound 92]
ASSAYED_SYSTEM: CYP17 (human testicular microsome) (Homo sapiens, UniProt P05093)
OBS_VALUE: 50 to 80%
--
MOLECULE: Cc1cncc(C2=CC[C@H]3[C@@H]4CC[C@H]5COCCC[C@]5(C)[C@H]4CC[C@]23C)c1 [Compound 127]
ASSAYED_SYSTEM: CYP17 (human testicular microsome) (Homo sapiens, UniProt P05093)
OBS_VALUE: 50 to 80%

Ask | // returns reported inhibition at 0.01 µM for input C[C@]12CCCC(=O)C1CC[C@@H]1[C@@H]2CC[C@]2(C)C(c3cccnc3)=CC[C@@H]12 (stereo partly shown) [Compound 89]
Reply | > 80%

Ask | // returns reported inhibition at 0.01 µM for input C[C@]12CCNCCC1CCC1C2CC[C@]2(C)C(n3ccnn3)=CCC12 (stereo partly shown) [Compound 139]
Reply | 1 to 50%
